Where do the numbers come from? From patent US20230017786A1.

MEASUREMENT TARGET: human NMDA receptor GluN1-GluN2A (Homo sapiens, UniProt Q05586+Q12879)
Construct: expressed in transfected cells; host or cells: CHO
Sequence (Q12879 23-1464, other chains not shown): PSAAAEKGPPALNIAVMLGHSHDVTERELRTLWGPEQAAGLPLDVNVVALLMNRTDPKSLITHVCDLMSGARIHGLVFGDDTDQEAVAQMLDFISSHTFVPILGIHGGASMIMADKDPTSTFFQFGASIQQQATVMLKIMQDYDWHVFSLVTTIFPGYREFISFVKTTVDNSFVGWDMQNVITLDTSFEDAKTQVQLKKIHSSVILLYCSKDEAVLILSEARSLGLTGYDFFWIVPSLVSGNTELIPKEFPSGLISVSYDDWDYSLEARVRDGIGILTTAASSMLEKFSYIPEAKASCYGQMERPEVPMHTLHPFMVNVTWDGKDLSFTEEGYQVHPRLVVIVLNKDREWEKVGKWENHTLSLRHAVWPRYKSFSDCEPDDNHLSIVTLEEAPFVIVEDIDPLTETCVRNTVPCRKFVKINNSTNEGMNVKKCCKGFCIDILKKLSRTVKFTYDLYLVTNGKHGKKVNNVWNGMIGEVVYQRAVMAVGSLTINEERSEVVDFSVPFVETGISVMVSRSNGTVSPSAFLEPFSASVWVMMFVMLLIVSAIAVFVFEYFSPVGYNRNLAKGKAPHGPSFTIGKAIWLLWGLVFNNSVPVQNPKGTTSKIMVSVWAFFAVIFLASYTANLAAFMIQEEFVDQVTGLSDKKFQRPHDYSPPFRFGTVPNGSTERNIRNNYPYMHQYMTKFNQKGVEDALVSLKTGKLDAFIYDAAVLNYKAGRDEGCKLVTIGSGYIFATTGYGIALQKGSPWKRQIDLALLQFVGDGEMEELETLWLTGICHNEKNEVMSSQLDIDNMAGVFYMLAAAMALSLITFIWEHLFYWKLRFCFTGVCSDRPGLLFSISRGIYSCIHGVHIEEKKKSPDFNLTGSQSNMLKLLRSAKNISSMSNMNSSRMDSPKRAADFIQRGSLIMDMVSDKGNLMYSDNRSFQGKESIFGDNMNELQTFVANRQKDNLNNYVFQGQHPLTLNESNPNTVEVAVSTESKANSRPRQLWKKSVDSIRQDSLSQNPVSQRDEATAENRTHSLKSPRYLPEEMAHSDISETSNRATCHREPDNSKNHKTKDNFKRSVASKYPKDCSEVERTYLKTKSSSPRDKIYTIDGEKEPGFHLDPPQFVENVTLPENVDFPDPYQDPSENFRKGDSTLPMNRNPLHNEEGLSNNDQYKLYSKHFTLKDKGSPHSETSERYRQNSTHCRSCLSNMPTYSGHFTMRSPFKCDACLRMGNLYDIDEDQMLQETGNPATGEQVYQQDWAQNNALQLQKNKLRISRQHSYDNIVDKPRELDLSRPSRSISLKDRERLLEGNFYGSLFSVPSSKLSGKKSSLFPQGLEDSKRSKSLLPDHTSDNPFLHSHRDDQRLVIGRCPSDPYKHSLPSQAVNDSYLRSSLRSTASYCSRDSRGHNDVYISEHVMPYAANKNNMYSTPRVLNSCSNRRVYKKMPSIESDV
RUN DESCRIPTION: FLIPR calcium assay, test item effect on L-glutamate CRC, GluN1-GluN2A-CHO
Assay type: cell-based
MEASUREMENT PARAMETERS: with test item 49 nM
Where a name gives a salt, the structure may show the parent alone.
Task for the reader: assign each of the following compounds its reported L-glutamate CRC LogEC50.
// no unit, no text: just the number

Lookup: What value of measured L-glutamate CRC LogEC50 is listed for CNC1(c2ccccc2Cl)CCCCC1=O (racemic) [(±)-Ketamine, (±)-ketamine hydrochloride] ?
Found: −6.5

Lookup: Next compound: CCC(=O)C(C[C@H](C)N(C)C)(c1ccccc1)c1ccccc1 [Dextromethadone, dextromethadone]
Found: −6.7

Lookup: Next compound: CC12CC3CC(C)(C1)CC(N)(C3)C2 [Memantine, memantine hydrochloride]
Found: −6.6

Lookup: Next compound: COc1ccc2c(c1)[C@]13CCCC[C@@H]1[C@H](C2)N(C)CC3 [Dextromethorphan, hydrobromide monohydrate]
Found: −6.6

* * *

MEASUREMENT TARGET: human NMDA receptor GluN1-GluN2A (Homo sapiens, UniProt Q05586+Q12879)
Construct: expressed in transfected cells; host or cells: CHO
RUN DESCRIPTION: FLIPR calcium assay, test item effect on L-glutamate CRC, GluN1-GluN2A-CHO
Format: cell-based
MEASUREMENT PARAMETERS: with test item 50 μM
Where a name gives a salt, the structure may show the parent alone.
ATTRIBUTE MEASURED: L-glutamate CRC LogEC50
// no unit, no text: just the number

Lookup: What value of measured L-glutamate CRC LogEC50 is listed for CNC1(c2ccccc2Cl)CCCCC1=O (racemic) [(±)-Ketamine, (±)-ketamine hydrochloride] ?
Found: −6.2

Lookup: Next compound: COc1ccc2c(c1)[C@]13CCCC[C@@H]1[C@H](C2)N(C)CC3 [Dextromethorphan, hydrobromide monohydrate]
Found: −6.2

Lookup: Next compound: CC12CC3CC(C)(C1)CC(N)(C3)C2 [Memantine, memantine hydrochloride]
Found: −6.1

Lookup: Next compound: CCC(=O)C(C[C@H](C)N(C)C)(c1ccccc1)c1ccccc1
Found: −6.4

* * *

MEASUREMENT TARGET: human NMDA receptor GluN1-GluN2A (Homo sapiens, UniProt Q05586+Q12879)
Construct: expressed in transfected cells; host or cells: CHO
RUN DESCRIPTION: FLIPR calcium assay, test item effect on L-glutamate CRC, GluN1-GluN2A-CHO
Assay type: cell-based
MEASUREMENT PARAMETERS: with test item 195 nM
Where a name gives a salt, the structure may show the parent alone.
ATTRIBUTE MEASURED: L-glutamate CRC HillSlope
// no unit, no text: just the number

Lookup: What value of measured L-glutamate CRC HillSlope is listed for CNC1(c2ccccc2Cl)CCCCC1=O (racemic) [(±)-Ketamine, (±)-ketamine hydrochloride] ?
Found: 1.2

Lookup: Next molecule: COc1ccc2c(c1)[C@]13CCCC[C@@H]1[C@H](C2)N(C)CC3 [Dextromethorphan, hydrobromide monohydrate]
Found: 1.2

Lookup: Next molecule: CCC(=O)C(C[C@H](C)N(C)C)(c1ccccc1)c1ccccc1 [Dextromethadone, dextromethadone]
Found: 1.1

Lookup: Next molecule: CC12CC3CC(C)(C1)CC(N)(C3)C2 [Memantine, memantine hydrochloride]
Found: 1.2

* * *

Task for the reader: assign each of the following compounds its reported L-glutamate CRC HillSlope.
MEASUREMENT TARGET: human NMDA receptor GluN1-GluN2A (Homo sapiens, UniProt Q05586+Q12879)
Construct: expressed in transfected cells; host or cells: CHO
RUN DESCRIPTION: FLIPR calcium assay, test item effect on L-glutamate CRC, GluN1-GluN2A-CHO
Assay type: cell-based
MEASUREMENT PARAMETERS: with test item 3.1 μM
Where a name gives a salt, the structure may show the parent alone.
// no unit, no text: just the number

Lookup: What value of measured L-glutamate CRC HillSlope is listed for CNC1(c2ccccc2Cl)CCCCC1=O (racemic) [(±)-Ketamine, (±)-ketamine hydrochloride] ?
Found: 1.1

Lookup: Next compound: CC12CC3CC(C)(C1)CC(N)(C3)C2 [Memantine, memantine hydrochloride]
Found: 1.1

Lookup: Next compound: COc1ccc2c(c1)[C@]13CCCC[C@@H]1[C@H](C2)N(C)CC3 [Dextromethorphan, hydrobromide monohydrate]
Found: 1.3

Lookup: Next compound: CCC(=O)C(C[C@H](C)N(C)C)(c1ccccc1)c1ccccc1 [Dextromethadone, dextromethadone]
Found: 1.0

* * *

MEASUREMENT TARGET: human NMDA receptor GluN1-GluN2D (Homo sapiens, UniProt O15399+Q05586)
Construct: expressed in transfected cells; host or cells: CHO
Sequence (O15399 28-1336, other chains not shown): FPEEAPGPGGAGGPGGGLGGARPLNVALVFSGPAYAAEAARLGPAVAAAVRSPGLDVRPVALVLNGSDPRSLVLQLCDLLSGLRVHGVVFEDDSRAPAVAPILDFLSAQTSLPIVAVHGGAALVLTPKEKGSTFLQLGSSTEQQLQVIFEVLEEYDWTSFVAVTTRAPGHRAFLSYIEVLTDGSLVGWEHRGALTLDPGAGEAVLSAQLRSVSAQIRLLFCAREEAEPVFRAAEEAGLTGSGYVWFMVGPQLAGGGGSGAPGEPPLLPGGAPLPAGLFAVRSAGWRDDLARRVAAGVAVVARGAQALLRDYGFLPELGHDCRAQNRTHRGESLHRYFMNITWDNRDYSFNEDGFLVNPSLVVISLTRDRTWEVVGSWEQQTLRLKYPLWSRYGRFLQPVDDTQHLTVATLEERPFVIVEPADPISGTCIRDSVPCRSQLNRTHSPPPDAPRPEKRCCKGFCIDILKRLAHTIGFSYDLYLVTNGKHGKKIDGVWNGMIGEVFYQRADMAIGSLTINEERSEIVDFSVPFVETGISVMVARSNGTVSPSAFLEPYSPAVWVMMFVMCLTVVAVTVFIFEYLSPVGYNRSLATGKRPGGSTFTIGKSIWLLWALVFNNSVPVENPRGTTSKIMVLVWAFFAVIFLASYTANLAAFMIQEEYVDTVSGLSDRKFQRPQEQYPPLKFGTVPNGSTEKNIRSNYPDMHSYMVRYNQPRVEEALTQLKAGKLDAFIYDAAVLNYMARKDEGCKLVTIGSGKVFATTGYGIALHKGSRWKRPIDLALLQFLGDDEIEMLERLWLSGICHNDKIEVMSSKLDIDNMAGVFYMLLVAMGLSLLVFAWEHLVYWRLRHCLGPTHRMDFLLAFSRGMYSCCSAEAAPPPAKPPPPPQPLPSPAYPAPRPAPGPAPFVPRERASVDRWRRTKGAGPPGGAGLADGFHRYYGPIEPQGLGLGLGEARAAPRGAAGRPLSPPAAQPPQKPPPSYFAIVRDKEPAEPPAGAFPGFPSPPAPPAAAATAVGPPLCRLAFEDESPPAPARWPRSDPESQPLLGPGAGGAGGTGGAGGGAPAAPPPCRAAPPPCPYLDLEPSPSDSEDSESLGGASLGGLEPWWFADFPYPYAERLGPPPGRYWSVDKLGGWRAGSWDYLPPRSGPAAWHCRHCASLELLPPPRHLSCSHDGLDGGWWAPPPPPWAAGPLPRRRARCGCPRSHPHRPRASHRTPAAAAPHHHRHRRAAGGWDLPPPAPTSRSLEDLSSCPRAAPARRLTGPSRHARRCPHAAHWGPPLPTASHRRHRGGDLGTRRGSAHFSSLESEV
RUN DESCRIPTION: FLIPR calcium assay, test item effect on L-glutamate CRC, GluN1-GluN2D-CHO
Format: cell-based
MEASUREMENT PARAMETERS: with test item 781 nM
Structures can show the parent of a compound that is named as a salt.
ATTRIBUTE MEASURED: L-glutamate CRC LogEC50
// no unit, no text: just the number

Lookup: What value of measured L-glutamate CRC LogEC50 is listed for COc1ccc2c(c1)[C@]13CCCC[C@@H]1[C@H](C2)N(C)CC3 [Dextromethorphan, hydrobromide monohydrate] ?
Found: −7.4

Lookup: Next compound: CC12CC3CC(C)(C1)CC(N)(C3)C2 [Memantine, memantine hydrochloride]
Found: −7.2

Lookup: Next compound: CNC1(c2ccccc2Cl)CCCCC1=O (racemic) [(±)-Ketamine, (±)-ketamine hydrochloride]
Found: −7.2

Lookup: Next compound: CCC(=O)C(C[C@H](C)N(C)C)(c1ccccc1)c1ccccc1
Found: −7.5

* * *

MEASUREMENT TARGET: human NMDA receptor GluN1-GluN2C (Homo sapiens, UniProt Q05586+Q14957)
Construct: expressed in transfected cells; host or cells: CHO
Sequence (Q14957 20-1233, other chains not shown): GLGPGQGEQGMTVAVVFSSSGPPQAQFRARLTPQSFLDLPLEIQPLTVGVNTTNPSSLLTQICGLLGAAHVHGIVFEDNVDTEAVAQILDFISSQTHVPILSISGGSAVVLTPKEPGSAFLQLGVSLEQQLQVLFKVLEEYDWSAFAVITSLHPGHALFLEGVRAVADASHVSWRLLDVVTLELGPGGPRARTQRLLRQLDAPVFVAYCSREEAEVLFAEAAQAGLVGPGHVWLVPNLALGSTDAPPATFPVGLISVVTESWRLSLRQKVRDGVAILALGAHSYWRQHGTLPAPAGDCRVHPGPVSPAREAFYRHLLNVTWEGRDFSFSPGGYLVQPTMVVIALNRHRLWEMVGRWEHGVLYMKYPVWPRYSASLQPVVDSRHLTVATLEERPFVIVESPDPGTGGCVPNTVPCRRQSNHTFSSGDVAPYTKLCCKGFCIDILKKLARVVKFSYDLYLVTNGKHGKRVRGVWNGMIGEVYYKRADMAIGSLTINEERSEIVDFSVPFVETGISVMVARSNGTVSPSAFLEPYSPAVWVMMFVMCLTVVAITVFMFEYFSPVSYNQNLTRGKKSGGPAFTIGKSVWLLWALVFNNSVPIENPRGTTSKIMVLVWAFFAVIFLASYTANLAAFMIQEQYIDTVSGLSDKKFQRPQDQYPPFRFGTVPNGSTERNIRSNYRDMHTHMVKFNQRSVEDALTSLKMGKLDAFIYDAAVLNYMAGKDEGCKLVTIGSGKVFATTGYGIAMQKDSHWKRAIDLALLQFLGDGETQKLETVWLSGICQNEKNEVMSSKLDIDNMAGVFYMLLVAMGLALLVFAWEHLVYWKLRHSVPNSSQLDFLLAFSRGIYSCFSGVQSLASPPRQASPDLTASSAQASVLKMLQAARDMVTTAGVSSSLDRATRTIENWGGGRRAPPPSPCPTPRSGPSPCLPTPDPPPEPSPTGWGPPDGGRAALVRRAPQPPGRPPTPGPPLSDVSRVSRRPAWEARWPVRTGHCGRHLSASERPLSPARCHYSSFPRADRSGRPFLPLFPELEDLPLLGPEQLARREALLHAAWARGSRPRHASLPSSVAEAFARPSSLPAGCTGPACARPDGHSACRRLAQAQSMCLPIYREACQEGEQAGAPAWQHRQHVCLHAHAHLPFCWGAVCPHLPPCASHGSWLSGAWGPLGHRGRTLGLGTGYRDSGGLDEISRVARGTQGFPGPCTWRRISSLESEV
RUN DESCRIPTION: FLIPR calcium assay, test item effect on L-glutamate CRC, GluN1-GluN2C-CHO
Type: cell-based
MEASUREMENT PARAMETERS: with test item 195 nM
Counter-ions that a name gives are not always drawn.
Task for the reader: assign each of the following compounds its reported L-glutamate CRC LogEC50.
// no unit, no text: just the number

Lookup: What value of measured L-glutamate CRC LogEC50 is listed for CNC1(c2ccccc2Cl)CCCCC1=O (racemic) [(±)-Ketamine, (±)-ketamine hydrochloride] ?
Found: −6.8

Lookup: Next compound: COc1ccc2c(c1)[C@]13CCCC[C@@H]1[C@H](C2)N(C)CC3 [Dextromethorphan, hydrobromide monohydrate]
Found: −6.8

Lookup: Next compound: CCC(=O)C(C[C@H](C)N(C)C)(c1ccccc1)c1ccccc1
Found: −6.8

Lookup: Next compound: CC12CC3CC(C)(C1)CC(N)(C3)C2 [Memantine, memantine hydrochloride]
Found: −6.9

* * *

MEASUREMENT TARGET: human NMDA receptor GluN1-GluN2C (Homo sapiens, UniProt Q05586+Q14957)
Construct: expressed in transfected cells; host or cells: CHO
RUN DESCRIPTION: FLIPR calcium assay, test item effect on L-glutamate CRC, GluN1-GluN2C-CHO
Assay type: cell-based
MEASUREMENT PARAMETERS: with test item 3.1 μM
Counter-ions that a name gives are not always drawn.
ATTRIBUTE MEASURED: L-glutamate CRC LogEC50
// no unit, no text: just the number

Lookup: What value of measured L-glutamate CRC LogEC50 is listed for CC12CC3CC(C)(C1)CC(N)(C3)C2 [Memantine, memantine hydrochloride] ?
Found: −6.5

Lookup: Next compound: CCC(=O)C(C[C@H](C)N(C)C)(c1ccccc1)c1ccccc1
Found: −6.8

Lookup: Next compound: CNC1(c2ccccc2Cl)CCCCC1=O (racemic) [(±)-Ketamine, (±)-ketamine hydrochloride]
Found: −6.6

Lookup: Next compound: COc1ccc2c(c1)[C@]13CCCC[C@@H]1[C@H](C2)N(C)CC3 [Dextromethorphan, hydrobromide monohydrate]
Found: −6.7

* * *

MEASUREMENT TARGET: human NMDA receptor GluN1-GluN2C (Homo sapiens, UniProt Q05586+Q14957)
Construct: expressed in transfected cells; host or cells: CHO
RUN DESCRIPTION: FLIPR calcium assay, test item effect on L-glutamate CRC, GluN1-GluN2C-CHO
Assay type: cell-based
MEASUREMENT PARAMETERS: with test item 12.5 μM
Counter-ions that a name gives are not always drawn.
ATTRIBUTE MEASURED: L-glutamate CRC HillSlope
// no unit, no text: just the number

Lookup: What value of measured L-glutamate CRC HillSlope is listed for COc1ccc2c(c1)[C@]13CCCC[C@@H]1[C@H](C2)N(C)CC3 [Dextromethorphan, hydrobromide monohydrate] ?
Found: 1.5

Lookup: Next compound: CNC1(c2ccccc2Cl)CCCCC1=O (racemic) [(±)-Ketamine, (±)-ketamine hydrochloride]
Found: 2.0

Lookup: Next compound: CC12CC3CC(C)(C1)CC(N)(C3)C2 [Memantine, memantine hydrochloride]
Found: 1.1

Lookup: Next compound: CCC(=O)C(C[C@H](C)N(C)C)(c1ccccc1)c1ccccc1
Found: 1.5
